target.entity: Human immunodeficiency virus type 1 reverse transcriptase (Human immunodeficiency virus 1)
assay: Tested for the inhibition of mutant type (Cys181) HIV-1 (IIIB) RT
reported.metric: pIC50
# pIC50: negative log10 of molar concentration; output just the value

Query :: Please look at this compound and report its pIC50: `CCOc1ccc(F)c(CCNC(=S)Nc2ccc(Br)cn2)c1Cl`
Result :: 7.30

Query :: Return value of pIC50 for input `CCOc1ccc(F)c(CC/N=C(\S)Nc2nc(C(F)(F)F)cs2)c1Cl` , no commentary.
Result :: 5.15

Query :: Return value of pIC50 for input `Fc1ccoc1CC/N=C(\S)Nc1ccc(Cl)cn1` , no commentary.
Result :: 6.85

Query :: Look up and state reported pIC50 for `CCOc1ccc(F)c(CCNC(=S)Nc2ccc(Cl)cn2)c1Cl`
Result :: 7.52

Query :: Kindly indicate its recorded pIC50. Item: `CCOc1ccc(OCC)c(CCNC(=S)Nc2ccc(Br)cn2)c1`
Result :: 6.15

Query :: Return value of pIC50 for input `Fc1cccc(F)c1CCNC(=S)Nc1ccc(Br)cn1` , no commentary.
Result :: 7.52

Query :: Tell me its pIC50 given `COc1ccc(F)c(F)c1CCNC(=S)Nc1ccc(Br)cn1` as the entry.
Result :: 8.40

Query :: # return recorded pIC50 for entry `CN(C)c1ccc(CC/N=C(\S)Nc2ccc(Br)cn2)c(F)c1C#N`
Result :: 6.96

Query :: Note down pIC50 recorded for `Cn1cccc1CCNC(=S)Nc1ccc(Cl)cn1`
Result :: 5.85
